Values were extracted from patent US7288562B2.

# system: M3 muscarinic receptor (Rattus norvegicus, UniProt P08483)
# Construct: from tissue; host or cells: rat submandibular gland membrane homogenate
# Sequence (P08483 whole entry): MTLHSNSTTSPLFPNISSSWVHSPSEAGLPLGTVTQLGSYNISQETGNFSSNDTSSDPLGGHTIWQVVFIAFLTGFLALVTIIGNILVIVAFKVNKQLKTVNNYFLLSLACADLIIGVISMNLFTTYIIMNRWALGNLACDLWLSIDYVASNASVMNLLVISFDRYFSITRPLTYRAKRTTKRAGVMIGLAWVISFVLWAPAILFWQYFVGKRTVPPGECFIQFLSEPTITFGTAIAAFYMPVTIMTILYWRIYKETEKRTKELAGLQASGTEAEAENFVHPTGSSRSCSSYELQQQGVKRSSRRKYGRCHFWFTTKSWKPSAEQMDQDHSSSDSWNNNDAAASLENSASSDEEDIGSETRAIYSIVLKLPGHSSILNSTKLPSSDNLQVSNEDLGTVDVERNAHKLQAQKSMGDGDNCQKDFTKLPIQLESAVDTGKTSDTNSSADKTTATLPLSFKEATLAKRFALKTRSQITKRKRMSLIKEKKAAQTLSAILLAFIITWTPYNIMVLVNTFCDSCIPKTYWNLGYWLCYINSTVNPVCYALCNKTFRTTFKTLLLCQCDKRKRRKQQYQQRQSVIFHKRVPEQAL
# test_details: Radioligand binding assay, [3H]-N-methylscopolamine, rat submandibular gland membranes
# condition_context: [3H]-NMS, read-out: Receptor Binding Assay M3 pKi (converted)
observed_property: Ki (nM)
Answers are plain numbers, in nM.

Take a look at these entries with their results.
[[record]]
molecule = "O=C(NC[C@@H]1[C@H]2CN(Cc3ccccc3)C[C@@H]12)[C@](O)(c1ccccc1)C1CCC(F)(F)C1 (single isomer, unassigned) [Compound No. 1B]"
observed_property = "Ki"
measurement_unit = "nM"
observed_measurement = 6.17

[[record]]
molecule = "O=C(Cc1ccccc1)NC1CCC([C@](O)(C(=O)NC[C@@H]2[C@H]3CN(Cc4ccccc4)C[C@@H]23)c2ccccc2)C1 (stereo partly shown) [Compound No. 5]"
observed_property = "Ki"
measurement_unit = "nM"
observed_measurement = 39.8

[[record]]
molecule = "O=C(COCc1ccccc1)NC1CCC(C(O)(C(=O)NCC2C3CN(Cc4ccccc4)CC23)c2ccccc2)C1 (single isomer, unassigned) [Compound No. 8]"
observed_property = "Ki"
measurement_unit = "nM"
observed_measurement = 34.7

[[record]]
molecule = "O=C(NC[C@@H]1[C@H]2CN(Cc3ccccc3)C[C@@H]12)[C@](O)(c1ccccc1)C1CCC(F)C1 (stereo partly shown) [Compound No. 2]"
observed_property = "Ki"
measurement_unit = "nM"
observed_measurement = 3.98

[[record]]
molecule = "O=C(NCC1C2CN(Cc3ccccc3)CC12)C(O)(c1ccccc1)C1CCC(F)C1 (single isomer, unassigned) [Compound No. 4]"
observed_property = "Ki"
measurement_unit = "nM"
observed_measurement = 5.89

[[record]]
molecule = "O=C(NCC1C2CN(Cc3ccccc3)CC12)C(O)(c1ccccc1)C1CCC(F)(F)C1 (mixture of isomers) [Compound No. 3]"
observed_property = "Ki"
measurement_unit = "nM"
observed_measurement = 6.31


Now examine the next entry.
Prompt: Consider the molecule O=C(NC[C@@H]1[C@H]2CN(Cc3ccccc3)C[C@@H]12)[C@](O)(c1ccccc1)C1CCC(F)(F)C1 (single isomer, unassigned) [Compound No. 1A] . State its measured Ki.
Response: 5.62

* * *

# system: M2 muscarinic receptor (Rattus norvegicus, UniProt P10980)
# Construct: from tissue; host or cells: rat heart membrane homogenate
# Sequence (P10980 whole entry): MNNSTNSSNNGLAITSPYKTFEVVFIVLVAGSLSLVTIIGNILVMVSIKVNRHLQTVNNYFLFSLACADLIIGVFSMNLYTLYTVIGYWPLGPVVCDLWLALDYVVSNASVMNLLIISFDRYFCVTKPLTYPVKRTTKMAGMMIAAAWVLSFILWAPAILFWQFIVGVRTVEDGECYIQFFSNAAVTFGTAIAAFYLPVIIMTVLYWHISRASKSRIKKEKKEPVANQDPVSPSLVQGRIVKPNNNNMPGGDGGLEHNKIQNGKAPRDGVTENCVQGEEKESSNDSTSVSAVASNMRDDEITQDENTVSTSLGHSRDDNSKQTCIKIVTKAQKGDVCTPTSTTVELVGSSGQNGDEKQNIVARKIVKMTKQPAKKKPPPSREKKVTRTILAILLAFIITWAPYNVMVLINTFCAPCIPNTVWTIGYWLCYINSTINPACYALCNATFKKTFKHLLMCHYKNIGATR
# test_details: Radioligand binding assay, [3H]-N-methylscopolamine, rat heart membranes
# condition_context: [3H]-NMS, read-out: Receptor Binding Assay M2 pKi (converted)
observed_property: Ki (nM)
Answers are plain numbers, in nM.

Some compounds with recorded Ki:
[[record]]
compound = "O=C(NCC1C2CN(Cc3ccccc3)CC12)C(O)(c1ccccc1)C1CCC(F)(F)C1 (mixture of isomers) [Compound No. 3]"
system = "M2 muscarinic receptor (Rattus norvegicus, UniProt P10980)"
observed_measurement = 251

[[record]]
compound = "O=C(Cc1ccccc1)NC1CCC([C@](O)(C(=O)NC[C@@H]2[C@H]3CN(Cc4ccccc4)C[C@@H]23)c2ccccc2)C1 (stereo partly shown) [Compound No. 5]"
system = "M2 muscarinic receptor (Rattus norvegicus, UniProt P10980)"
observed_measurement = 832

[[record]]
compound = "O=C(NC[C@@H]1[C@H]2CN(Cc3ccccc3)C[C@@H]12)[C@](O)(c1ccccc1)C1CCC(F)(F)C1 (single isomer, unassigned) [Compound No. 1A]"
system = "M2 muscarinic receptor (Rattus norvegicus, UniProt P10980)"
observed_measurement = 135


For each of the items listed, what is its Ki?
1. O=C(COCc1ccccc1)NC1CCC(C(O)(C(=O)NCC2C3CN(Cc4ccccc4)CC23)c2ccccc2)C1 (single isomer, unassigned) [Compound No. 8]
2. O=C(NCC1C2CN(Cc3ccccc3)CC12)C(O)(c1ccccc1)C1CCC(F)C1 (single isomer, unassigned) [Compound No. 4]
3. O=C(NC[C@@H]1[C@H]2CN(Cc3ccccc3)C[C@@H]12)[C@](O)(c1ccccc1)C1CCC(F)(F)C1 (single isomer, unassigned) [Compound No. 1B]
4. O=C(NC[C@@H]1[C@H]2CN(Cc3ccccc3)C[C@@H]12)[C@](O)(c1ccccc1)C1CCC(F)C1 (stereo partly shown) [Compound No. 2]

Response:
1: 209; 2: 138; 3: 229; 4: 126
